- Read-out: 3-Hydroxy-3-Methylglutaryl-CoA Synthase 2 (HMGCS2), HMGCS2 (gene 3158)
- assay.comment: LTEA_HepaRG_HMGCS2: Life Technologies and Expression Analysis (LTEA) Assay for 3-Hydroxy-3-Methylglutaryl-CoA Synthase 2 (HMGCS2) using HepaRG (AID 2283504)
- assay.setup: mRNA level, 48 h; actives raise or lower the signal
The source made the active and inactive calls. Rule for the calls: active = hit-call score of the fitted dose curve at least 0.9, where 1 is the maximum; inactive = score below 0.9.
endpoint.name: AC50

CCNc1nc(NC(C)C)nc(SC)n1    50 µM (active)
Nn1cnnc1    inactive
O=S(=O)(O)C(F)(F)C(F)(F)C(F)(F)C(F)(F)F    inactive
O=C(O)C(F)(F)C(F)(F)C(F)(F)C(F)(F)C(F)(F)C(F)(F)C(F)(F)C(F)(F)F    80.4 µM (active)
O=C(NC(=O)c1cc(F)c(F)cc1Cl)Nc1cc(F)ccc1N1CCC(C(=O)O)CC1    20.3 µM (active)

Give the measured AC50 for CCCN(CCC)N=O inactive

Give the measured AC50 for C=CC(=O)NCNC(=O)C=C inactive

Give the measured AC50 for Cc1cc(-c2ccc(N)c(C)c2)ccc1N 19.3 µM (active)

Give the measured AC50 for O=NN(c1ccccc1)c1ccccc1 inactive

Give the measured AC50 for Clc1ccc(C(c2ccccc2Cl)C(Cl)(Cl)Cl)cc1 (configuration not stated) 50 µM (active)

Give the measured AC50 for O=C(O)C(F)(F)C(F)(F)C(F)(F)C(F)(F)C(F)(F)C(F)(F)C(F)(F)C(F)(F)C(F)(F)F 34 µM (active)

Give the measured AC50 for CCCCCCOC(=O)c1ccccc1C(=O)OCCCCCC inactive
